All values here come from patent US20250163162A1.

// reported pSTAT3 (MFI) in CD8 T cells at 1 µM per item
- system: T1, IL10Rα and IL2Rγ on human primary cells (CD8 T cells, CD4 T cells, monocytes) (human) (UniProt Q13651)
- T1 sequence (looked up) 1: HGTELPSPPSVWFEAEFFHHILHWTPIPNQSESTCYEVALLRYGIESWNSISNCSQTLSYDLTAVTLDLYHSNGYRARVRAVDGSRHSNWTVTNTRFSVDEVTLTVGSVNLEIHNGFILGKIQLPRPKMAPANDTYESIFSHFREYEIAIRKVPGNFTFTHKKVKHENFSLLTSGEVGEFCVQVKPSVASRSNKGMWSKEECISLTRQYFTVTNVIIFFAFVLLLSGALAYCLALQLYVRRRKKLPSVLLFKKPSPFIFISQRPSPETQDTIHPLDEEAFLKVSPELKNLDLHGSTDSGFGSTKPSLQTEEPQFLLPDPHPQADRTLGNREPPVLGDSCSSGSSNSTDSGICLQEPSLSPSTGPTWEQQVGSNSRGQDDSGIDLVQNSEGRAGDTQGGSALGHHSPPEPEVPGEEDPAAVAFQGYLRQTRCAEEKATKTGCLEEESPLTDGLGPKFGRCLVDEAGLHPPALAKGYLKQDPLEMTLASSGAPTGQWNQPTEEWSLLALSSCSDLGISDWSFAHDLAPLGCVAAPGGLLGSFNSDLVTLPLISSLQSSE
- T1 sequence (looked up) 2: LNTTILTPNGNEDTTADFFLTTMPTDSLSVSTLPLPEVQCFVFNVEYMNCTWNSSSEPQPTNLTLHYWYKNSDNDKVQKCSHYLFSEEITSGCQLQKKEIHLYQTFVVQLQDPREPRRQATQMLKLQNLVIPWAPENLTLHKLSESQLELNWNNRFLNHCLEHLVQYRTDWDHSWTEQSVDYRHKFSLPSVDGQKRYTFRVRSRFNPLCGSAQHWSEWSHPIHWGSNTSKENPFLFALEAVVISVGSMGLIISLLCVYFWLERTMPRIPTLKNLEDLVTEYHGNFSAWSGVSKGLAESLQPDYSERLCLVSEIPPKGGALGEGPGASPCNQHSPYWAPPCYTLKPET
- testSummary: cell-based or functional assay
State just the number; it will be interpreted in MFI.

hIL10Ra_VHH14-hIL2Rg_VHH19, linker GS, tag his (bispecific antibody, not shown: small tags and cut ends) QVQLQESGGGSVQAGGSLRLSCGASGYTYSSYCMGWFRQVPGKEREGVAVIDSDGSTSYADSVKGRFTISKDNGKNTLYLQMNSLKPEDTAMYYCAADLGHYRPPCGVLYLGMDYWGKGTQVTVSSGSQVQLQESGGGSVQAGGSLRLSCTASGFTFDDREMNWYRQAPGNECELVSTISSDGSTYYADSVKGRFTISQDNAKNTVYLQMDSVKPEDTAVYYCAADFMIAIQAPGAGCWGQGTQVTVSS : 8200
hIL10Ra_VHH14-hIL2Rg_VHH19, linker GGGS, tag his (bispecific antibody, not shown: small tags and cut ends) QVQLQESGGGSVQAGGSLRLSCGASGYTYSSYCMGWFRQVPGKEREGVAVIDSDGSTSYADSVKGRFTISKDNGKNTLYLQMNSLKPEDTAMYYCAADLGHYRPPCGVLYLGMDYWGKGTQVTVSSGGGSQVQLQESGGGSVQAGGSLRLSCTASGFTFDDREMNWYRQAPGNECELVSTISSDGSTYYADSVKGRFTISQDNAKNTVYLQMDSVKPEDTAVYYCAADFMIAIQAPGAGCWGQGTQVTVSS : 6500
hIL10Ra_VHH14-hIL2Rg_VHH19, no linker, tag his (bispecific antibody, not shown: small tags and cut ends) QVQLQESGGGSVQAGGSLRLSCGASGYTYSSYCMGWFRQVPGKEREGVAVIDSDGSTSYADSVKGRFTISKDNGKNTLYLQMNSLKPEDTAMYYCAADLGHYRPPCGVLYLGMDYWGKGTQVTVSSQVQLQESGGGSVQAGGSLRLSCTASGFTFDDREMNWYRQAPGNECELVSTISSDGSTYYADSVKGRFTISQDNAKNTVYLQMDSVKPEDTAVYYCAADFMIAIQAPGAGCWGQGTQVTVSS : 7720

Specify measured pSTAT3 (MFI) in CD8 T cells at 1 µM for hIL10Ra_VHH14-hIL2Rg_VHH19, linker …, tag his (bispecific antibody, not shown: small tags and cut ends) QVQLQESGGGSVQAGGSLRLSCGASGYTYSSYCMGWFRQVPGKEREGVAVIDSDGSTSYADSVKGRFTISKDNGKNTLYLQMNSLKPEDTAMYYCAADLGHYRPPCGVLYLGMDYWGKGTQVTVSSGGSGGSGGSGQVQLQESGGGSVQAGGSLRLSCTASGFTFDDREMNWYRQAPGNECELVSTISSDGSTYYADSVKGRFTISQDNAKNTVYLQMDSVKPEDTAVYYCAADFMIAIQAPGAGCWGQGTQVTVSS .
6480

Specify measured pSTAT3 (MFI) in CD8 T cells at 1 µM for hIL10Ra_VHH14-hIL2Rg_VHH19, linker GGGSGGGS, tag his (bispecific antibody, not shown: small tags and cut ends) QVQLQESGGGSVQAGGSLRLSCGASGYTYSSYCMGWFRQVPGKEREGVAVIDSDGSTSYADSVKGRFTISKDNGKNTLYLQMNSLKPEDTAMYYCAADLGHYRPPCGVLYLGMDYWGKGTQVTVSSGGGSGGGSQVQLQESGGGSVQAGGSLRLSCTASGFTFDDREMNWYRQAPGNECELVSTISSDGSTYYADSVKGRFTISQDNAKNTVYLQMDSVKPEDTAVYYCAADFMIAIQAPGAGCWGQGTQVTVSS .
7870

Specify measured pSTAT3 (MFI) in CD8 T cells at 1 µM for hIL10Ra_VHH14-hIL2Rg_VHH19, linker GGSGGS, tag his (bispecific antibody, not shown: small tags and cut ends) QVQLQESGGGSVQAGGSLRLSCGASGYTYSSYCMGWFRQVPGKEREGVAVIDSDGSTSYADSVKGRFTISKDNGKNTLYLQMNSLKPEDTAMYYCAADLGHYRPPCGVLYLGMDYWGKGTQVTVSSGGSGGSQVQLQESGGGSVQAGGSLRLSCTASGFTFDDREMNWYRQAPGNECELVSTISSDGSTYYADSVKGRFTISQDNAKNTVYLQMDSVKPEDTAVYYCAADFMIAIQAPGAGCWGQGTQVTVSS .
7720
